Recorded values, source ChEMBL document CHEMBL1131305.

Assay: Volume of distribution was determined in rat at 5.5 mg/kg, iv
Assay type: ADME, organism-based
Parameters: dose 5.5 mg/kg, route intravenous
Settings: in vivo, read-out: Vdss
measured-metric: Vd (L/kg)

* CCOC(=O)[C@]1(Cc2ccccc2)CCCN(C(=O)[C@@H](Cc2c[nH]c3ccccc23)NC(=O)C(C)(C)N)C1 | 2.7

====

Experiment: Bioavailability in dogs at 3.8 mg/kg oral dose.
Type: ADME, organism-based, Canis lupus familiaris
Details: dog, in vivo
measured-metric: bioavailability (%)

- CCOC(=O)[C@]1(Cc2ccccc2)CCCN(C(=O)[C@@H](Cc2c[nH]c3ccccc23)NC(=O)C(C)(C)N)C1: 29
